test system: ECHCG: Echinochloa crus-galli; experiment: Pre-emergence herbicidal effect; type: in vivo; conditions: pre-emergence; dosage 320 g/ha
Consider the following compounds; for each one, report its Herbicidal action against ECHCG.
Give the value in % but do not write % after it.

## Input Respond only with Herbicidal action against ECHCG recorded for CC#CC(C)(O)c1cnc(N[C@H]2c3cc(C)ccc3C[C@@H]2C)nc1 (some centres unmarked)
## Output 100

## Input Respond only with Herbicidal action against ECHCG recorded for Cc1ccc2c(c1)[C@H](Nc1ncc(C(C)(C)O)c(C(C)F)n1)[C@@H](C)C2 (some centres unmarked)
## Output 100

## Input Respond only with Herbicidal action against ECHCG recorded for C#CC(C)(O)c1cnc(N[C@H]2c3cc(C)ccc3C[C@@H]2C)nc1 (some centres unmarked)
## Output 100

## Input Respond only with Herbicidal action against ECHCG recorded for CCc1ccc2c(c1)[C@H](Nc1ncc(C(C)(C)O)cn1)CC2
## Output 100

## Input Respond only with Herbicidal action against ECHCG recorded for Cc1ccc2c(c1)[C@H](Nc1ncc(C(C)(C)O)c(C(F)F)n1)[C@@H](C)C2
## Output 100

## Input Respond only with Herbicidal action against ECHCG recorded for CCc1ccc2c(c1)[C@H](Nc1ncc(C(C)(C)O)c(C)n1)CC2
## Output 100

## Input Respond only with Herbicidal action against ECHCG recorded for Cc1ccc2c(c1)[C@H](Nc1ncc(C(C)(C)O)c(C)n1)CC2
## Output 100

## Input Respond only with Herbicidal action against ECHCG recorded for Cc1ccc2c(c1)[C@H](Nc1ncc(C(C)(C)O)c(C)n1)[C@@H](C)C2
## Output 100

----------
tested on: ECHCG: Echinochloa crus-galli; assay: Post-emergence herbicidal effect; format: in vivo; conditions: dosage 320 g/ha
endpoint: Herbicidal action against ECHCG (%)
Give the value in % but do not write % after it.

## Input Respond only with Herbicidal action against ECHCG recorded for CC(C)(O)c1cnc(N[C@@H]2CCCc3ccccc32)nc1 [Example 1.8]
## Output 100

## Input Respond only with Herbicidal action against ECHCG recorded for Cc1ccc2c(c1)[C@H](Nc1ncc(C(C)(C)O)c(N)n1)[C@@H](C)C2 [drawing 9, reference compound]
## Output 10

## Input Respond only with Herbicidal action against ECHCG recorded for C=CC(C)(O)c1cnc(N[C@H]2c3cc(C)ccc3C[C@@H]2C)nc1 (stereo partly shown) [Example 1.15]
## Output 100

## Input Respond only with Herbicidal action against ECHCG recorded for Cc1ccc2c(c1)[C@H](Nc1ncc(C(C)(C)O)c(C)n1)CC2 [Example 1.12]
## Output 100

----------
System: ALOMY: Alopecurus myosuroides
Experiment: Post-emergence herbicidal effect
Assay type: in vivo
Details: dosage 80 g/ha
Description: 2. Post-Emergence Herbicidal Effect and Crop Plant Compatibility Seeds of monocotyledonous and dicotyledonous weeds and crop plants are placed in sandy loam in plastic or wood-fiber pots, covered with soil and cultivated in a greenhouse under controlled growth conditions, 2 to 3 weeks after sowing, the test plants are treated at the one-leaf stage. […]
endpoint: Herbicidal action against ALOMY
Could you write the number and then its unit?

## Input Respond only with Herbicidal action against ALOMY recorded for Cc1ccc2c(c1)[C@H](Nc1ncc(C(C)(C)O)c(N)n1)[C@@H](C)C2 [drawing 9, reference compound]
## Output 0%

## Input Respond only with Herbicidal action against ALOMY recorded for Cc1ccc2c(c1)[C@H](Nc1ncc([C@H](C)O)c(N)n1)[C@@H](C)C2 (racemic) [drawing 14, reference compound]
## Output 0%

## Input Respond only with Herbicidal action against ALOMY recorded for Cc1ccc2c(c1)[C@H](Nc1ncc(C(C)O)c(C)n1)[C@@H](C)C2 (stereo partly drawn) [Example 1.7]
## Output 80%

## Input Respond only with Herbicidal action against ALOMY recorded for Cc1ccc2c(c1)[C@H](Nc1ncc(C(C)(C)O)cn1)[C@@H](C)C2 [Example 1.4]
## Output 20%

## Input Respond only with Herbicidal action against ALOMY recorded for Cc1ccc2c(c1)[C@H](Nc1ncc(C(C)(C)O)c(C)n1)[C@@H](C)C2 [Example 1.6]
## Output 90%

## Input Respond only with Herbicidal action against ALOMY recorded for Cc1ccc2c(c1)[C@H](Nc1ncc(C(C)(C)O)c(N)n1)[C@@H](C)C2 [drawing 10, reference compound]
## Output 0%
